- target_or_test_system: OsWRKY34 (Oryza sativa, UniProt Q0JBA9 1-250)
- Sequence (Q0JBA9 entry or part of it): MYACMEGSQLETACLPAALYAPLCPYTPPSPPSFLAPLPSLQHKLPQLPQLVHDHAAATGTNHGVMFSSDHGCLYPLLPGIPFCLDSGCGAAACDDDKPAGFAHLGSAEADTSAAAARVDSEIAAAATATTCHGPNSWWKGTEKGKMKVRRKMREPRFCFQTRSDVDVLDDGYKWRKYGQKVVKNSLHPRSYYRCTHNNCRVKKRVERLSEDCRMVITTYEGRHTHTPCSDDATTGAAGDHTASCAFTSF
- protocol_notes: protein-binding microarray (RPBM); PBS, 2% BSA, 51.3 ng/ul salmon testes DNA, 50 uM zinc acetate, 200 nM TF, 25 C, 1 h; high values mean tight binding
- setup_conditions: protein: recombinant; tags: N-terminal polyhistidine and DsRed monomer fusion (pET32a); label: CyDye5-dUTP incorporated in the synthesized complementary strand; 3' TTTTT single-stranded linker to array surface; dsDNA, one strand shown
Over roughly 68,000 sequences, “fluorescence intensity (a.u.)” has its median near 9,100; the highest 2% begin near 16,000. This is one part of a sample in which the highest values are shown more often than they occur.
parameter_measured: binding signal

binding signal reported for this sequence TTTCGAAATGTTTGACACTGTTGACTTTTTAGCACATGTTCGGAGTCACCTAGTGCAG : 14200 fluorescence intensity (a.u.)

binding signal reported for this sequence CAGCAGATTGCCCATCTCTCGTTGTACTGCCAATCTCTCCCGGAGTCACCTAGTGCAG : 9530 fluorescence intensity (a.u.)

binding signal reported for this sequence CAGATTGTTTTCCATGATTCTTAGCCTCTCTGATGTTTGACGGAGTCACCTAGTGCAG : 9640 fluorescence intensity (a.u.)

binding signal reported for this sequence TCTTCATTTCCGTGTTCAGCAGCTTTGCAATAATTTCTATCGGAGTCACCTAGTGCAG : 11900 fluorescence intensity (a.u.)

binding signal reported for this sequence TGGATTTAGGATGTTACTTTGATTTGGGGATTTGGGGTTTCGGAGTCACCTAGTGCAG : 17200 fluorescence intensity (a.u.)

binding signal reported for this sequence TCTGGTTCCATTTTCCACGCACAGGAGAGTGATTACTTTTCGGAGTCACCTAGTGCAG : 11200 fluorescence intensity (a.u.)

binding signal reported for this sequence TATCTTTTTCTTTTTGGAGGTTTCGTTTTCTCTTGGTCAACGGAGTCACCTAGTGCAG : 10400 fluorescence intensity (a.u.)

binding signal reported for this sequence CGAAATGTTTGACGTCGTTGACTTTTTAGCACATGTTTAACGGAGTCACCTAGTGCAG : 22800 fluorescence intensity (a.u.)
